# assay system: T1, LTα1β2 on the surface of PMA-treated II-23 cells (UniProt P01374 35-205, limits assumed)
# T1 construct: whole, on cells; also called surface LT
# T1 sequence 1: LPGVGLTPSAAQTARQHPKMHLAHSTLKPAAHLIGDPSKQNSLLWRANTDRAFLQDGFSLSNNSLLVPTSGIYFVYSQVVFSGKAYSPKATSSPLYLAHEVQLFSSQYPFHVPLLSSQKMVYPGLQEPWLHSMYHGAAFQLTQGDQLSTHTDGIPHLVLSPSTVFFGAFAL
# T1 sequence 2: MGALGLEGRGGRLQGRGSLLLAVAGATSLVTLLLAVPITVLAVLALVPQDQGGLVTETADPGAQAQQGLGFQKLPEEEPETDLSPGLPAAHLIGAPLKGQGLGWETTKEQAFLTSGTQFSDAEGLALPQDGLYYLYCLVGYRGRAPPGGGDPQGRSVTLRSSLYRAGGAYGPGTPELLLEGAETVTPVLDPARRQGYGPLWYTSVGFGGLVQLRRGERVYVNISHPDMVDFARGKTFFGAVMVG
# measurement description: FACS, inhibition of biotin-LTβR-Ig binding to PMA-treated II-23 cells
value type: potency in an II-23 assay (% blockade)

# input What does the record list as potency in an II-23 assay (% blockade) for A1D5 (antibody, V domains shown, Murine monoclonal antibody, kappa light chain; also called mAb A1D5) VH: EVQLQQSGPELVKPGASVKISCKASGYSFTGYFMNWMRQSHGKSLEWIGRINPYNGDSFYNQKFKDKATLTVDKSSTTAHMELLSLTSEDSAVYYCGRGYDAMDYWGQGTSVTVSS VL: DIQMTQTTSSLSASLGDRVTISCRASQDISNFLTWYQQKPDGTVKLLIYYTSKLHSGVPSRFSGSGSGTDYSLTISNLEPGDIATYYCQQVSKFPWTFGGGAKLEIK ?
# output > 90%

// data source = patent US20140079716A1
